target_under_test: T1, flag-tagged soluble TL3 (amino acids 105-251 of SEQ ID NO:234) (Homo sapiens (Human), UniProt O75888 105-250)
T1 construct: Heterologous flag-tagged control protein, immobilized in the ELISA; also called flagged tagged TL-3; not shown: Flag tag
T1 sequence: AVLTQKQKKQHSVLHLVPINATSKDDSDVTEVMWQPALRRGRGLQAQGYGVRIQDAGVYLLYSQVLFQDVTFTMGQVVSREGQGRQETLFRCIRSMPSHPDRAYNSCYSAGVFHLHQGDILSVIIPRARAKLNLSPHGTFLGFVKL
test_method_notes: phage ELISA on immobilized flag-tagged soluble TL3
Description: The individual phage isolates in the panel of phage, each phage expressing a unique scFv that bound to flag-tagged GMAD, were tested to ensure specificity for GMAD using an ELISA assay. […]
measurement_label: binding result

GMCC127 (scFv) scFv: QVQLVQSGGGVVRPGGSLRLSCAASGFTFDDYGMSWVRQAPGKGLEWVSGINWNGGSTGYADSVKGRFTISRDNAKNSLYLQMNSLRAEDTAVYYCARRRYALDYWGRGTLVTVSSGGGGSGGGGSGGGGSALSSELTQDPAVSVALGQAVRITCQGDSLRTNYASWYQQRPGQAPVLVIRGNNNRPSGIPDRFSGSNSGDTVSLTITGAQAEDEADYYCNSRDTSGYHYVFGTGTKLTVLG | no binding
GMBC619 (scFv) scFv: EVQLVESGGGVVQPGRSLRLSCAASGFTFRSYGMHWVRQAPGKGLEWVAVITYDGSNKYYADSVKGRFTISRDNSKNTLYLQMNSLRADDTAVYYCARDGGGWYHPRLDYWGQGTMVTVSSGGGGSGGGGSGGGGSSELTQDPAVSVALGQTVRITCQGDSLRSYYASWYQQKPGQAPVLVIYGKNNRPSGIPDRFSGSSSGNTASLTITGAQAEDEADYYCNSRDSSGNHVVFGGGTKLTVLG | no binding
